System: Rattus norvegicus
Procedure Text: Apparent clearance in Sprague-Dawley rat at 20 mg/kg, iv
Format: ADME, organism-based
Design: dose 20 mg/kg, route intravenous
Condition Notes: in vivo

[
  {
    "Given Smiles": "N#C[C@@H]1C[C@H](F)CN1C(=O)C[C@H](N)Cc1cc(F)c(F)cc1F",
    "Unit Info": "mL/min/kg",
    "CL(app)": 57
  }
]

----------
Procedure Text: Half life in Sprague-Dawley rat at 10 mg/kg, iv
Format: ADME, organism-based
Set-up: dose 10 mg/kg, route intravenous
Condition Notes: in vivo

[
  {
    "Given Smiles": "N#C[C@@H]1C[C@@H]2CCC[C@@H]2N1C(=O)C[C@H](N)Cc1cc(F)c(F)cc1F",
    "half-life": "2.39 h"
  }
]
